assay: physchem; settings: pH 4.5, aqueous buffer, kinetic from dmso stock, Solubility (pH 4.5)
RECORDED METRIC: solubility at 24 h (µg/mL)
Output spec: scalar in µg/mL, unitless text.

Problem: Consider the compound COC[C@H]1N(c2cccc(-c3cccc(F)c3OCc3cc(C)c4c(c3)CCN(C3CCOCC3)C4)n2)C[C@@H]2C[C@@]21C(=O)O . State its measured solubility at 24 h.
Solution: 109

Problem: Consider the compound CO[C@@H]1CN(c2cccc(-c3cccc(C)c3OCc3ccc4c(c3C)CCN(C)CC4)n2)CC[C@@H]1C(=O)O . State its measured solubility at 24 h.
Solution: 82.3

Problem: Consider the compound CCc1cc(COc2c(C)cccc2-c2cccc(N3C[C@@H]4C[C@]4(C(=O)O)[C@H]3COC)n2)cc2c1CN(C1CCOC1)CC2 (some centres unmarked) . State its measured solubility at 24 h.
Solution: 110

Problem: Consider the compound Cc1cc(CN2CCc3c(ccc(COc4ccccc4-c4cccc(N5CC[C@@]6(C(=O)O)C[C@H]6C5)n4)c3C)C2)no1 . State its measured solubility at 24 h.
Solution: 61.6

Problem: Consider the compound CO[C@@H]1CN(c2cccc(-c3cc(C)ccc3OCc3ccc4c(c3C)CCN(C3CCOCC3)C4)n2)CC[C@@H]1C(=O)O . State its measured solubility at 24 h.
Solution: 110

Problem: Consider the compound COC[C@H]1N(c2cccc(-c3cccc(C)c3OCc3cc(C)c4c(c3)CCN(C3CCOC3)C4)n2)C[C@@H]2C[C@@]21C(=O)O (some centres unmarked) [Compound 50] . State its measured solubility at 24 h.
Solution: 96

Problem: Consider the compound Cc1cccc(-c2csc(N3CC[C@@]4(C(=O)O)C[C@H]4C3)n2)c1OCc1ccc2c(c1C)CCN(C1CCOC1)C2 (some centres unmarked) . State its measured solubility at 24 h.
Solution: 69

Problem: Consider the compound CO[C@H]1CN(c2cccc(-c3cc(C)ccc3OCc3ccc4c(c3C)CCN(C3CCOCC3)C4=O)n2)CC[C@H]1C(=O)O . State its measured solubility at 24 h.
Solution: 42.6

Problem: Consider the compound COC[C@H]1N(c2cccc(-c3cccc(C)c3OCc3cc(C)c4c(c3)CCN(C3CCOCC3)C4)n2)C[C@@H]2C[C@@]21C(=O)O . State its measured solubility at 24 h.
Solution: 69

Problem: Consider the compound Cc1cccc(-c2cccc(N3CC[C@H](C(=O)O)[C@@H]4OCCC[C@H]43)n2)c1OCc1ccc2c(c1C)CCN(C1CCOCC1)CC2 . State its measured solubility at 24 h.
Solution: 80.5

Problem: Consider the compound Cc1ccc(OCc2ccc3c(c2C)CCN(C2CCCOC2)C3)c(-c2csc(N3CC[C@@]4(C(=O)O)C[C@H]4C3)n2)c1 (some centres unmarked) . State its measured solubility at 24 h.
Solution: 21

Problem: Consider the compound COC[C@H]1N(c2cccc(-c3cccc(C)c3OCc3cc(C#N)c4c(c3)CCN(C3CCOCC3)C4)n2)C[C@@H]2C[C@@]21C(=O)O . State its measured solubility at 24 h.
Solution: 162

Problem: Consider the compound COc1ccc(OCc2ccc3c(c2C)CCN(C2CCOCC2)C3)c(-c2csc(N3CC[C@@]4(C(=O)O)C[C@H]4C3)n2)c1 . State its measured solubility at 24 h.
Solution: 43.6

Problem: Consider the compound Cc1ccc(OCc2cc(C)c3c(c2)CCN(C2CCOCC2)C3)c(-c2csc(N3CC[C@@]4(C(=O)O)C[C@H]4C3)n2)c1 . State its measured solubility at 24 h.
Solution: 32

Problem: Consider the compound CO[C@H]1CN(c2nc(-c3cccc(C)c3OCc3cc(C)c4c(c3F)CCN(C3CCOCC3)C4)cs2)CC[C@H]1C(=O)O . State its measured solubility at 24 h.
Solution: 116

Problem: Consider the compound COC[C@H]1N(c2cccc(-c3cccc(C)c3OCc3cc(C)c4c(c3)OCCN(C3CCOCC3)C4)n2)C[C@@H]2C[C@@]21C(=O)O . State its measured solubility at 24 h.
Solution: 110

Problem: Consider the compound Cc1ccc(OCc2ccc3c(c2C)CCN(C2COC2)CC3)c(-c2cccc(N3C[C@@H]4C[C@]4(C(=O)O)C3)n2)c1 . State its measured solubility at 24 h.
Solution: 87

Problem: Consider the compound COc1cc(COc2c(C)cccc2-c2csc(N3CC[C@@H](C(=O)O)[C@@H](OC)C3)n2)cc2c1CN(C1CCOCC1)CC2 . State its measured solubility at 24 h.
Solution: 100

Problem: Consider the compound CCO[C@@H]1CN(c2nccc(-c3cccc(C)c3OCc3ccc4c(c3C)CCN(C3CCOCC3)CC4)n2)CC[C@@H]1C(=O)O . State its measured solubility at 24 h.
Solution: 84.8

Problem: Consider the compound CO[C@H]1CN(c2cccc(-c3cccc(C)c3OCc3cc(F)c4c(c3)CCN(C3CCOCC3)CC4)n2)CC[C@H]1C(=O)O . State its measured solubility at 24 h.
Solution: 80.7
